# run_description: Whole blood stability, human
# Assay type: in vitro ADME
# conditions: 60 min
assay_metric: Whole Blood Stability % Remaining at 37° C. Human (%)
Give bare numbers, in %.

Example entries begin here.
smiles	value_observed
COC[C@H]1Cc2c([nH]c3ccccc23)[C@H](c2ccc(C(=O)OC(C)(C)C)cc2)N1C(=O)CCl	70.7
COC(=O)c1ccc([C@H]2c3[nH]c4ccc(Br)cc4c3C[C@H](C(=O)OC)N2C(=O)CCl)cc1	27.0
COC(=O)[C@H]1Cc2c([nH]c3ccccc23)[C@H](c2ccc(C(=O)O)cc2)N1C(=O)CCl	57.9
COC(=O)c1ccc([C@@H]2c3[nH]c4ccc(Cl)cc4c3C[C@H](C(=O)OC)N2C(=O)CCl)cc1	27.1
CC(C)(C)OC(=O)c1ccc([C@H]2c3[nH]c4ccccc4c3C[C@H](C(=O)OC(C)(C)C)N2C(=O)CCl)cc1	35.6
CN(C)C(=O)[C@H]1Cc2c([nH]c3ccccc23)[C@H](c2ccc(C(=O)OC(C)(C)C)cc2)N1C(=O)CCl	24.3
CN(C)C(=O)[C@H]1Cc2c([nH]c3ccccc23)[C@H](c2ccc(S(C)(=O)=O)cc2)N1C(=O)CCl	51.5
COC(=O)[C@H]1Cc2c([nH]c3ccccc23)[C@H](c2ccc(S(=O)(=O)N(C)C)cc2)N1C(=O)CCl	30.8

Return reported Whole Blood Stability % Remaining at 37° C. Human; argument: `C[C@H]1Cc2c([nH]c3ccc(F)cc23)[C@H](c2ccc(N3CCOCC3)cc2)N1C(=O)CCl`
50.8

* * *

# run_description: Whole blood stability, mouse
# Format: in vitro ADME
# conditions: 60 min
# Excerpt: The results of the assay on stability in blood and IC50 values for pancreatic cancer cell line KP4 are given below in Table 24.
assay_metric: Whole Blood Stability % Remaining at 37° C. Mouse

The following molecules have reported results that may help.
molecule	value_observed
CC(C)(C)OC(=O)c1ccc([C@@H]2c3[nH]c4ccccc4c3C[C@H](CO)N2C(=O)CCl)cc1 [Example 64a]	3.2%
COC(=O)c1ccc([C@H]2c3[nH]c4ccc(Br)cc4c3C[C@H](C(=O)OC)N2C(=O)CCl)cc1 [Compound 88]	0.0%

Look up Whole Blood Stability % Remaining at 37° C. Mouse for the entries below, preserving their order.
1. CN(C)C(=O)[C@H]1Cc2c([nH]c3ccccc23)[C@H](c2ccc(S(=O)(=O)C3CCCC3)cc2)N1C(=O)CCl [Compound 69]
2. CNS(=O)(=O)c1ccc([C@H]2c3[nH]c4ccccc4c3C[C@H](C(=O)OC)N2C(=O)CCl)cc1 [Compound 22]
3. COC(=O)c1cccc([C@H]2c3[nH]c4ccccc4c3C[C@H](C(=O)OC)N2C(=O)CCl)c1 [Compound 100]
4. COC(=O)[C@H]1Cc2c([nH]c3ccccc23)[C@H](c2ccc(S(=O)(=O)N3CCC(O)CC3)cc2)N1C(=O)CCl [Compound 35]
5. COC(=O)[C@H]1Cc2c([nH]c3ccccc23)[C@H](c2ccc(C(=O)NCCNC(=O)OC(C)(C)C)cc2)N1C(=O)CCl [Compound 16]

1. 29.3%
2. 27.6%
3. 10.8%
4. 14.8%
5. 63.3%

Which Whole Blood Stability % Remaining at 37° C. Mouse reading was recorded for the molecule COC(=O)[C@H]1CC2c3ccccc3NC2[C@H](c2ccc(C(=O)OC(C)(C)C)cc2)N1C(=O)C(F)(F)Cl (some centres unmarked) [Compound 34] ?
80.6%

* * *

# Tested on: A549
# run_description: Cell viability assay, A549 cells
# Type: cell-based
# conditions: Homo sapiens, A549, Cell Line A549; read-out: IC50
assay_metric: pIC50
Give bare numbers, as −log10 of the molar value.

// worked examples, pIC50 included
compound	assay_metric	value_observed
CC(C)(C)OC(=O)c1ccc([C@H]2c3[nH]c4ccccc4c3C[C@H](CO)N2C(=O)CCl)cc1 [Compound 257]	pIC50	5.09
COC(=O)[C@H]1Cc2c([nH]c3ccccc23)[C@H](c2ccc(O)cc2)N1C(=O)CCl [Compound 265]	pIC50	4.60

Could I get pIC50 for every one of these entries?
1. C#CC(=O)N1[C@@H](c2ccc(F)cc2)c2[nH]c3ccccc3c2C[C@@H]1C#N [Compound 190]
2. C[C@H]1Cc2c([nH]c3ccc(Cl)cc23)[C@H](c2ccc(N3CCOCC3)cc2)N1C(=O)CCl [Compound 120]
3. CN(C)C(=O)[C@H]1Cc2c([nH]c3ccccc23)[C@H](c2ccc(N)cc2)N1C(=O)CCl [Compound 259]

5.52
6.09
5.10

* * *

# run_description: Whole blood stability, human
# Format: in vitro ADME
# conditions: 30 min
Could you please report measured Whole Blood Stability % Remaining at 37° C. Human for the items listed next?

compound	value_observed
COC(=O)[C@H]1Cc2c([nH]c3ccccc23)[C@H](c2ccc(NCC3CC3)cc2)N1C(=O)CCl	78.5%
COC(=O)[C@H]1Cc2c([nH]c3ccccc23)[C@H](c2ccc(OC(C)=O)cc2)N1C(=O)CCl	0.0%
CN(C)C(=O)[C@H]1Cc2c([nH]c3ccccc23)[C@H](c2ccc(C(=O)N(CCC(=O)OC(C)(C)C)C(C)(C)C)cc2)N1C(=O)CCl	44.9%
COC(=O)c1ccc([C@H]2c3[nH]c4ccccc4c3C[C@H](C(=O)OC)N2C(=O)CCl)cc1 [K601 (RSL3), reference compound]	60.8%
COC(=O)[C@H]1CC2c3ccccc3NC2[C@H](c2ccc(C(=O)OC(C)(C)C)cc2)N1C(=O)C(F)(F)Cl (stereo partly drawn)	104.9%
COC(=O)c1ccc([C@H]2c3sc4ccccc4c3C[C@H](C(=O)OC)N2C(=O)CCl)cc1 [Example 55c]	46.0%
COC(=O)[C@H]1Cc2c([nH]c3ccccc23)[C@H](c2ccc(C(=O)OC(C)(C)C)cc2)N1C(=O)CCl	60.5%
COC(=O)c1ccc([C@H]2c3[nH]c4ccc(Br)cc4c3C[C@H](C(=O)OC)N2C(=O)CCl)cc1	56.4%

Alright, here's another compound for you.
Whole Blood Stability % Remaining at 37° C. Human lookup needed for `COC(=O)[C@H]1Cc2c([nH]c3ccccc23)[C@H](c2ccc(C(=O)NC(C)(C)C)cc2)N1C(=O)CCl` , thanks.
53.8%

* * *

# run_description: Whole blood stability, mouse
# Assay type: in vitro ADME
# conditions: 30 min
Threshold rule: Whole Blood Stability % Remaining at 37° C. Mouse greater than or equal to 50% is yes; below that, no.

These recorded examples may help you get a feel for the data.
compound	class_assignment
COC(=O)c1ccc([C@H]2c3c(c4ccccc4n3C)C[C@H](C(=O)OC)N2C(=O)CCl)cc1 [Compound 72]	no
COC(=O)[C@H]1Cc2c([nH]c3ccccc23)[C@H](c2ccc(C(=O)OC(C)(C)C)cc2)N1C(=O)/C=C/CCl [Compound 25]	no
COC(=O)c1ccc([C@H]2c3[nH]c4ccccc4c3C[C@H](C)N2C(=O)CCl)cc1 [Compound 77]	no
CCC[C@H]1Cc2c([nH]c3ccccc23)[C@H](c2ccc(N3CCOCC3)cc2)N1C(=O)CCl [Compound 118]	yes
CN(C)C(=O)[C@H]1Cc2c([nH]c3ccccc23)[C@H](c2ccc(NC(=O)OC(C)(C)C)cc2)N1C(=O)CCl [Compound 56]	yes

Record COC(=O)[C@H]1Cc2c([nH]c3ccccc23)[C@H](c2ccc(C(=O)OCC3(C)CC3)cc2)N1C(=O)CCl [Compound 84] ; criterion: Whole Blood Stability % Remaining at 37° C. Mouse no lower than 50%. Met?
no

Query C[C@H]1Cc2c([nH]c3ccccc23)[C@H](c2ccc(C3CCOCC3)cc2)N1C(=O)CCl [Compound 112] next
yes

What about this compound? COC(=O)[C@H]1Cc2c([nH]c3ccccc23)[C@H](c2ccc(C(=O)NC(C(=O)O)C(C)(C)C)cc2)N1C(=O)CCl (single isomer, unassigned) [Compound 10]
yes

* * *

# run_description: Whole blood stability, human
# Assay type: in vitro ADME
# conditions: 60 min
assay_metric: Whole Blood Stability % Remaining at 37° C. Human (%)
Answers are plain numbers, in %.

Give me Whole Blood Stability % Remaining at 37° C. Human for each of these molecules, listed below.
1. COC(=O)[C@H]1CC2c3ccccc3NC2[C@H](c2ccc(C(=O)OC(C)(C)C)cc2)N1C(=O)C(F)(F)Cl (stereo partly shown)
2. CN(C)C(=O)[C@H]1Cc2c([nH]c3ccccc23)[C@H](c2ccc(C(=O)N(CCC(=O)OC(C)(C)C)C(C)(C)C)cc2)N1C(=O)CCl
3. [2H]C([2H])(Cl)C(=O)N1[C@@H](c2ccc(C(=O)OC(C)(C)C)cc2)c2[nH]c3ccccc3c2C[C@@H]1C(=O)OC

113.4
40.4
40.8

Please supply Whole Blood Stability % Remaining at 37° C. Human for each of the following items, keeping them in order.
1. C[C@H]1Cc2c([nH]c3ccccc23)[C@H](c2ccc(S(=O)(=O)N[C@]34CC5C[C@H](C[C@H](C5)C3)C4)cc2)N1C(=O)CCl
2. COC(=O)[C@H]1Cc2c([nH]c3ccccc23)[C@H](c2ccc(S(=O)(=O)NCC3CC3)cc2)N1C(=O)CCl

1: 29.8; 2: 34.5

Hi there! I need Whole Blood Stability % Remaining at 37° C. Human for each item below, if you can.
1. COC(=O)c1cccc([C@H]2c3[nH]c4ccccc4c3C[C@H](C(=O)OC)N2C(=O)CCl)c1
2. O=C(O)c1ccc([C@H]2c3[nH]c4ccccc4c3C[C@H](C(=O)O)N2C(=O)CCl)cc1
3. CNS(=O)(=O)c1ccc([C@H]2c3[nH]c4ccccc4c3C[C@H](C(=O)OC)N2C(=O)CCl)cc1
4. CN(C)C(=O)c1ccc([C@H]2c3sc4ccccc4c3C[C@H](C(=O)N(C)C)N2C(=O)CCl)cc1

1. 44.3
2. 82.0
3. 24.9
4. 20.6

Given the molecule `COC(=O)[C@H]1Cc2c([nH]c3ccccc23)[C@H](c2ccc(S(=O)(=O)N3CCC(O)CC3)cc2)N1C(=O)CCl` , what is its reported Whole Blood Stability % Remaining at 37° C. Human?
20.5

Every entry's value here was drawn from patent US11098040B2.
